Each entry below lists one item and its recorded pIC50 value.
Tested on: MCF-7, cancer cell line
Test Details: MCF-7 growth inhibition (SRB or Sysmex cell counting)
Format: cell-based
Assay Conditions: concentration required to inhibit net cell growth by 50%; SRB or CC assay
Just so you know, pIC50 here is -log10 of the concentration in molar units; reply with that number alone.

Examples with answers:
Molecule: COc1cc(C(=O)c2c(-c3cnn(C)c3)oc3c(OC(C)C)c(OC)ccc23)cc(OC)c1OC
pIC50: 7.46

Molecule: COc1cc(C(=O)c2c(-c3cn[nH]c3)oc3c(O)c(OC)ccc23)cc(OC)c1OC
pIC50: 8.47

Molecule: COc1cc(C(=O)c2coc3c(OP(=O)(O)O)c(OC)ccc23)cc(OC)c1OC [Entry 9, reference compound]
pIC50: 7.09

Molecule: COc1cc(C(=O)c2c(-c3cnn(C)c3)oc3c(O)c(OC)ccc23)cc(OC)c1O
pIC50: 7.54

Could you now look at the following molecule, please?
Q: Look up pIC50 of COc1cc(C(=O)c2c(-c3nccs3)oc3c(O)c(OC)ccc23)cc(OC)c1OC and report it.
A: 9.49

Reference source: patent US8278290B2
